procedure.details: Inhibition of Mycobacterium tuberculosis fatty acid synthase 1 expressed in Mycobacterium smegmatis mc2 2700 assessed as NADPH oxidation using variable concentration of NADPH by spectrophotometry
Recorded measurements of pKi, one per entry
Just so you know, pKi here is -log10 of the concentration in molar units; reply with that number alone.

Dear colleague, I am looking for the recorded pKi of the following compound: NC(=O)c1cnc(Cl)cn1
4.26

Now for another entry.
Dear colleague, I am looking for the recorded pKi of the following compound: NC(=O)c1cnccn1 [PYRAZINAMIDE]
2.59

----------
System: Mycobacterium tuberculosis
procedure.details: Inhibition of Mycobacterium tuberculosis fatty acid synthase 1 expressed in Mycobacterium smegmatis mc2 2700 assessed as [2-14C]]malonyl-CoA incorporation into fatty acid at 3000 uM
measured.quantity: inhibition (%)
// units = %; emit number, no label

Dear colleague, I am looking for the recorded inhibition of the following molecule: O=C(O)c1cnccn1
6

Others:
Dear colleague, I am looking for the recorded inhibition of the following molecule: CCCOC(=O)c1cnccn1
6

Further, for NC(=O)c1cnc(Cl)cn1 ?
39

Further, for CCCNC(=O)c1cnc(Cl)cn1 ?
6

Further, for NC(=O)c1cnccn1 [PYRAZINAMIDE] ?
6

----------
System: Mycobacterium tuberculosis
procedure.details: Inhibition of Mycobacterium tuberculosis fatty acid synthase 1 expressed in Mycobacterium smegmatis mc2 2700 assessed as [2-14C]]malonyl-CoA incorporation into fatty acid at 6000 uM
Recorded measurements of inhibition, one per entry
// units = %; emit number, no label

Take a look at these entries with their results.
Dear colleague, I am looking for the recorded inhibition of the following compound: CCCOC(=O)c1cnc(F)cn1
66

Further, for CCCNC(=O)c1cnc(Cl)cn1 ?
37

Further, for NC(=O)c1cnccn1 [PYRAZINAMIDE] ?
37

Further, for O=C(O)c1cnccn1 ?
37

Further, for CCCOC(=O)c1cnc(Cl)cn1 ?
66

Further, for C/C=C/C/C=C/CCC(=O)[C@H]1O[C@H]1C(N)=O ?
62

Now for another entry.
Dear colleague, I am looking for the recorded inhibition of the following compound: CCCOC(=O)c1cnccn1
37
